Reference source for all entries: patent US7517517B2

target: cloned rat mGlu1 receptor (Rattus norvegicus); construct: expressed in transfected cells; host or cells: CHO cells; assay: Signal transduction at the cloned rat mGlu1 receptor in CHO cells (glutamate-induced Ca2+ rise, FLIPR); assay type: cell-based; conditions: 50% inhibition of the glutamate-induced intracellular Ca2+ rise; CHO cells, FLIPR
readout kind: pIC50
On this scale, pIC50 is minus log10 of a concentration expressed in M (mol/L).

Record excerpt, results attached:
>>> df
                                   compound                             target_entity  recorded_number
0       O=C(Cc1ccsc1)c1ccc2nc3c(cc2c1)CCCO3  cloned rat mGlu1 receptor (Rattus norvegicus)             8.14
1     Cc1cc2cc3c(cc2cc1C(=O)Cc1ccccc1)CCCS3  cloned rat mGlu1 receptor (Rattus norvegicus)             8.48
2  CC1Cc2cc3cc(C(=O)Cc4ccccc4)ccc3nc2O1 (stereo not shown)  cloned rat mGlu1 receptor (Rattus norvegicus)             8.05
3     O=C(Cc1ccccc1F)c1ccc2nc3c(cc2c1)CCCO3  cloned rat mGlu1 receptor (Rattus norvegicus)             8.25

Asked: Recorded pIC50 of `O=C(c1ccc2nc3c(cc2c1)CCS3)C1CCCCC1` , please.
Given back: 8.12

Asked: Continue with `O=C(Cc1ccccc1)c1ccc2nc3c(cc2c1)CCCS3`
Given back: 8.02

Asked: Same question for COC1CCC(C(=O)c2ccc3nc4c(cc3c2)CCO4)CC1 (stereo not shown) please.
Given back: 8.38

###

biological target: rat mGlu1a receptor (Rattus norvegicus, UniProt P23385); construct: host or cells: CHO-dhfr- cells; assay: [3H]Compound A binding to rat mGlu1a receptor CHO-dhfr− membranes (saturation, kinetics, inhibition); settings: 2.5 nM [3H]Compound A, 30 min at 4° C.; mean ± SD of 3–4 experiments
Sequence (P23385 19-1199): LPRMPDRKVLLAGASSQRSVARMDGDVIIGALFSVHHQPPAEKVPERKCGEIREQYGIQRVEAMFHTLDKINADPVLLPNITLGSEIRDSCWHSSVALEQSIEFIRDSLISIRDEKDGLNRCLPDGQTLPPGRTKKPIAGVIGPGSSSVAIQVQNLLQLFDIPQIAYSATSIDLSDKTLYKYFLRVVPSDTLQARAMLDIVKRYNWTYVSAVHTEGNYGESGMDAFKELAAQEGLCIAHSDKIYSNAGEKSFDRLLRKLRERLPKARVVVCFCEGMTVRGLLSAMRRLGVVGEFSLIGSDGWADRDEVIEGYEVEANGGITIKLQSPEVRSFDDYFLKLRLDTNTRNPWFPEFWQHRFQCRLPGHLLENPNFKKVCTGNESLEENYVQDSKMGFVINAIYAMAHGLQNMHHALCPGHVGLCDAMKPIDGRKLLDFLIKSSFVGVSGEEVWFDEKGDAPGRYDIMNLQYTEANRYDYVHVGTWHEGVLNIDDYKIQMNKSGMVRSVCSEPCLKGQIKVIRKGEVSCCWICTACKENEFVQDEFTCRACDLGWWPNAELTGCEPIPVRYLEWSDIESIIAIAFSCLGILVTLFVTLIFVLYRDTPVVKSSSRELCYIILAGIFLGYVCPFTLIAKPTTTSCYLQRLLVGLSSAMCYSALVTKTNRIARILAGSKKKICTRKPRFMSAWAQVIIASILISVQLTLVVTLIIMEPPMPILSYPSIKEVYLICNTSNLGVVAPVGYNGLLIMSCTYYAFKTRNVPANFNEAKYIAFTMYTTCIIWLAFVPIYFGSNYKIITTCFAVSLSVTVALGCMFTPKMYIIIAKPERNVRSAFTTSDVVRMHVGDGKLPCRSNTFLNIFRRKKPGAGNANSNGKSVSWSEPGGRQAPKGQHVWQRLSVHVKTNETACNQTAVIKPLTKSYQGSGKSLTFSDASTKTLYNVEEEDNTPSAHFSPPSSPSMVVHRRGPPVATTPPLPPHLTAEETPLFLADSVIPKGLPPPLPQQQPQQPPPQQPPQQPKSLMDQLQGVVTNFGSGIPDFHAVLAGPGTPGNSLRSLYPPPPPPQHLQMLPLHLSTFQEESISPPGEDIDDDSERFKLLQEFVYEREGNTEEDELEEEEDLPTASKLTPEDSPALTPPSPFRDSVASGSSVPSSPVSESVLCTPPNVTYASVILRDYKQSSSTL
readout kind: Ki

Asked: Returns the measured Ki for the input compound. Input: C=C1C[C@@H]2COC(=O)[C@]2(Cc2ccc3ccccc3c2)C1 [BAY 36-7620, reference compound]
Given back: 11.2 nM

Asked: What do you have for O=C(NC12CC3CC(CC(C3)C1)C2)c1cnc2ccccc2n1 [NPS 2390, reference compound] ?
Given back: 1.36 nM

Asked: What do you get for Cc1cc(C(=O)O)ccc1[C@H](N)C(=O)O [LY367385, reference compound] ?
Given back: > 1e+06 nM

Asked: Next entry: N[C@H](C(=O)O)c1ccc(C(=O)O)c(O)c1 [(S)-4C3HPG]
Given back: > 1e+06 nM

###

biological target: rat mGlu1a receptor (Rattus norvegicus, UniProt P23385); construct: host or cells: CHO-dhfr- cells; test: Intracellular Ca2+ response in rat mGlu1a receptor expressing CHO-dhfr− cells (FLIPR); assay type: cell-based; settings: CHO-dhfr− cells expressing rat mGlu1a; same assay; read-out: IC50, inhibition of the glutamate-induced increase in [Ca2+]i
readout kind: pIC50
FYI, pIC50 means -log10 of a concentration in mol per litre.

Asked: Can you look up the measured pIC50 of CCOC(=O)[C@]12CC1/C(=N\O)c1ccccc1O2 (mixture of isomers) [CPCCOEt, reference compound] for me?
Given back: 4.99

###

Reported pIC50 by item:
biological target: cloned rat mGlu1 receptor (Rattus norvegicus); construct: expressed in transfected cells; host or cells: CHO cells; assay: Signal transduction at the cloned rat mGlu1 receptor in CHO cells (glutamate-induced Ca2+ rise, FLIPR); assay type: cell-based; conditions: inhibition of glutamate-induced intracellular Ca2+ rise, CHO cells expressing mGlu1 receptor; compounds with pIC50 between 7 and 8
Formally, pIC50 is defined as -log10 of the concentration c, with c in mol/L.

Recorded results for 5 compounds are shown here.
>>> print(df.to_string())
                                   compound  recorded_number
0  CCc1cc2cc(C(=O)C3(F)CCC(OC)CC3)ccc2nc1Cl (single isomer, unassigned) [Compound 220]             7.87
1  CCO[C@H]1CC[C@@H](C(=O)c2ccc3nc(C)c(CC)cc3c2)CC1 [Compound 115]             7.64
2  CCc1cc2cc(C(=O)C3CCC(OC)CC3)ccc2nc1NC(=O)CCCC1CCCCC1 (stereo not drawn) [Compound 346]             7.74
3  O=C(Cc1ccccc1)c1ccc2nc3c(cc2c1)CCS3 [Compound 441]             7.95
4  O=C(c1ccc2nc3c(cc2c1)CCS3)[C@H]1CC[C@H](O)CC1 [Compound 422]             7.02

Asked: GET /values?readout=pIC50&item= COC1CCCC(C(=O)c2ccc3nc4c(cc3c2)CCCO4)C1 (stereo not drawn) [Compound 437]
Given back: 7.78

###

target: cloned rat mGlu1 receptor (Rattus norvegicus); construct: expressed in transfected cells; host or cells: CHO cells; test: Signal transduction at the cloned rat mGlu1 receptor in CHO cells (glutamate-induced Ca2+ rise, FLIPR); format: cell-based; settings: 50% inhibition of the glutamate-induced intracellular Ca2+ rise; CHO cells, FLIPR
readout kind: IC50 (nM)
Give the value, in units of nM, as a plain number.

>>> df
                                   compound  recorded_number
0  CCc1cc2cc(C(=O)[C@H]3CC[C@@H](OC)CC3)c(C)cc2[nH]c1=O             8.61
1      O=C(Cc1ccccc1)c1ccc2nc3c(cc2c1)CCCO3             5.79

Proceeding to the next compound to report its IC50.
Asked: Quick check: IC50 of `O=C(Cc1ccccc1F)c1ccc2nc3c(cc2c1)CCCS3` ?
Given back: 10

###

biological target: cloned rat mGlu1 receptor (Rattus norvegicus, UniProt P23385); construct: expressed in transfected cells; host or cells: CHO cells; assay: Signal transduction at the cloned rat mGlu1 receptor in CHO cells (glutamate-induced Ca2+ rise, FLIPR); format: cell-based; conditions: inhibition of glutamate-induced intracellular Ca2+ rise, CHO cells expressing mGlu1 receptor; compounds with pIC50 between 7 and 8
Sequence (P23385 19-1199): as above
readout kind: IC50
Answer shape: numeric part, then the unit.

Example cases with answers are listed next.
>>> df
                                   compound   result
0  O=C(CC1CC2CCC1C2)c1ccc2nc(Cl)ccc2c1 (stereo not shown) [Compound 313]  44.7 nM
1  CCc1cc2cc(C(=O)C3CCC(OC)CC3)ccc2nc1NC(=O)C1CCCO1 (stereo not shown) [Compound 356]    38 nM
2  CCc1cc2cc(C(=O)Cc3cccs3)ccc2nc1C [Compound 298]  33.1 nM
3  COC1CCC(C(=O)c2ccc3nc4c(cc3c2)CCO4)CC1 (stereo not shown) [Compound 429]  43.7 nM
4  O=C(c1ccc2nc3c(cc2c1)CCCO3)C1COc2ccccc2O1 (stereo not shown) [Compound 438]  64.6 nM

Asked: Could you tell me which IC50 is on file for COC1CCCC(C(=O)c2ccc3nc4c(cc3c2)CCCO4)C1 (stereo not shown) [Compound 440] ?
Given back: 11.7 nM

Asked: Entry to check: CCc1cc2cc(C(=O)[C@H]3CC[C@@H](OC)CC3)ccc2[nH]c1=S [Compound 36]
Given back: 100 nM

Asked: Further, for CCc1cc2cc(C(=O)C34CCC(CC3)C4)ccc2nc1C [Compound 300] ?
Given back: 83.2 nM

Asked: # iterate: CN(C)CC(C(=O)c1ccc2nc3c(cc2c1)CCS3)c1ccccc1 (stereo not shown) [Compound 442]
Given back: 93.3 nM

Asked: What do we get for CCc1cc2cc(C(=O)[C@H]3CC[C@@H](OC)CC3)ccc2nc1NC(=O)C1CCN(C(C)=O)CC1 [Compound 193] ?
Given back: 61.7 nM

Asked: Item: CCc1cc2cc(C(=O)C3CCC(OC)CC3)ccc2nc1NC(=O)c1ccc(OC)cc1 (stereo not shown) [Compound 323]
Given back: 52.5 nM

###

biological target: rat mGlu1a receptor (Rattus norvegicus); construct: host or cells: CHO-dhfr- cells; test: Intracellular Ca2+ response in rat mGlu1a receptor expressing CHO-dhfr− cells (FLIPR); format: cell-based; conditions: CHO-dhfr− cells expressing rat mGlu1a; glutamate 30 μM; read-out: IC50, inhibition of the glutamate-induced increase in [Ca2+]i
readout kind: IC50 (nM)
Use nM as the unit, but write only the number.

Asked: Entry under review: C=C1C[C@@H]2COC(=O)[C@]2(Cc2ccc3ccccc3c2)C1 [BAY 36-7620, reference compound] . Reported IC50?
Given back: 161

###

Listing of recorded pKi by entry.
biological target: rat mGlu1a receptor (Rattus norvegicus, UniProt P23385); construct: host or cells: CHO-dhfr- cells; assay: [3H]quisqualate binding to rat mGlu1a receptor CHO-dhfr− membranes (saturation, inhibition); details: inhibition of [3H]quisqualate binding, rat mGlu1a receptor CHO-dhfr− membranes; mean ± SD of 2 experiments
pKi here is simply -log10 of the concentration when that concentration is written in mol/L.

                                   molecule                             target_entity  recorded_number
0  N[C@H](C(=O)O)c1cc(O)cc(O)c1 [(S)-3,5-DHPG, reference compound]  rat mGlu1a receptor (Rattus norvegicus, UniProt P23385)             5.85

Asked: Looking for the measured pKi of Cc1cc(C(=O)O)ccc1[C@H](N)C(=O)O [LY367385, reference compound] , can you help?
Given back: 5.93

Asked: Same again, this time with N[C@H](C(=O)O)c1ccc(C(=O)O)c(O)c1 [(S)-4C3HPG]
Given back: 5.78

Asked: Input N[C@H](C(=O)O)c1ccc(C(=O)O)cc1 [(S)-4CPG, reference compound]
Given back: 5.35

Asked: Ok, now NC1(C(=O)O)CCc2cc(C(=O)O)ccc21 (stereo not shown) [AIDA, reference compound]
Given back: 4.01
